target: p-AXL (Homo sapiens, UniProt P30530); experiment: Axl phosphorylation inhibition ELISA in HEK293T cells transfected with NanoLuc-tagged AXL; details: 1 h compound incubation, media (OptiMEM)
Sequence (P30530 26-894): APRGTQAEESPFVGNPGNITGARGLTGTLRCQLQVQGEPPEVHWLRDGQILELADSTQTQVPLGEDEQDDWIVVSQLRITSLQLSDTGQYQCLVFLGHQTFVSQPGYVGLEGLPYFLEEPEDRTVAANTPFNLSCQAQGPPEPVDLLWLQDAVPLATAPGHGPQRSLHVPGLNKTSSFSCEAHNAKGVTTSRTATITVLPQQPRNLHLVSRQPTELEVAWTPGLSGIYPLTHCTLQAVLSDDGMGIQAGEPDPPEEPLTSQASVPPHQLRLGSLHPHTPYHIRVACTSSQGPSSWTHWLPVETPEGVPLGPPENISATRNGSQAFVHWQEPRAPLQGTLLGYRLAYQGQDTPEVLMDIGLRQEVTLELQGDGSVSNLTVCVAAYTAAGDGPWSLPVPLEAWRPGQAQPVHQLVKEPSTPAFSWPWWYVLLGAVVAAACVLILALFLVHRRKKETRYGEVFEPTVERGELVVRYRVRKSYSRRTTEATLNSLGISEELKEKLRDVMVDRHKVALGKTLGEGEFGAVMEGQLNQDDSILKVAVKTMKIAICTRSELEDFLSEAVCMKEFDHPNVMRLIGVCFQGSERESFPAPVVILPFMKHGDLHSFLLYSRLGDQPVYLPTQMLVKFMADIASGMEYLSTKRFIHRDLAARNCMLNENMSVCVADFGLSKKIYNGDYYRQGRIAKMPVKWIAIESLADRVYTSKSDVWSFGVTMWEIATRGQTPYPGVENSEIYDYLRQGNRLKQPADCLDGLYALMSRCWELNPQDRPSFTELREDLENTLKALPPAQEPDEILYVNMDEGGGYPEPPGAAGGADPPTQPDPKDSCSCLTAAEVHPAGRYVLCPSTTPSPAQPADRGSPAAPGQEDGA
pIC50: −log10 of the molar value.
property: pIC50

// known answers, use as guide
Given item Cc1ccc(C(F)(F)F)nc1-c1ccc(-c2n[nH]c3ncc(-c4ccc5c(c4)CC[C@@H](N4C6COC[C@H]4C6)CC5)cc23)cc1 [Example 145] , the value recorded as its pIC50 is 6.00 to 7.00

Given item N#Cc1cccnc1-c1ccc(-c2n[nH]c3ncc(-c4ccc5c(c4)CC[C@@H](N4C6COCC4C6)CC5)cc23)cc1 [Example 52] , the value recorded as its pIC50 is > 7.00

Given item Cc1cccnc1-c1ccc(-c2n[nH]c3ncc(-c4ccc5c(c4)CC[C@@](C)(N4CCC[C@H]4C)CC5)cc23)nc1 [Example 105] , the value recorded as its pIC50 is > 7.00

Given item Cc1ccc(C(F)(F)F)nc1-c1ccc(-c2c[nH]c3ncc(-c4ccc5c(c4)CC[C@@H](N4C6COC[C@H]4C6)CC5)cc23)cc1 [Example 146] , the value recorded as its pIC50 is 6.00 to 7.00

Continuing:
Given item CC(C)(O)c1ccccc1-c1ccc(-c2c[nH]c3ncc(-c4ccc5c(c4)CC[C@@H](N4C6COCC4C6)CC5)cc23)cn1 [Example 114] , the value recorded as its pIC50 is > 7.00

Given item Cc1cncnc1-c1ccc(-c2c[nH]c3ncc(-c4ccc5c(c4)CC[C@@H](N4C6COCC4C6)CC5)cc23)cc1 [Example 47] , the value recorded as its pIC50 is > 7.00
